Molecular target: human vanin-1 (Homo sapiens (Human), UniProt O95497)
Sequence (O95497 22-491): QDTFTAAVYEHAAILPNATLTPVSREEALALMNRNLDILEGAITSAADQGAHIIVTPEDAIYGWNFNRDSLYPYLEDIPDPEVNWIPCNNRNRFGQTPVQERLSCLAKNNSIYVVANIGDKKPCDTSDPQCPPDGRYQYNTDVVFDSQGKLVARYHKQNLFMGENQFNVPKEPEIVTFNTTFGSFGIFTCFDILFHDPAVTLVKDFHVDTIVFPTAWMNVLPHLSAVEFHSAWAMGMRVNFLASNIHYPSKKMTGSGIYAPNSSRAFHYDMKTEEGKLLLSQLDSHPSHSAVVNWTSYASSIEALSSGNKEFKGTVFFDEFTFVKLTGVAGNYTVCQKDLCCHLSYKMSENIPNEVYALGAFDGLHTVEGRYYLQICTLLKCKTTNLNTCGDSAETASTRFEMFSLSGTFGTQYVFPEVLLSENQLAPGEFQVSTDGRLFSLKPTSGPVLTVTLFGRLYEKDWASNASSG
Test: Human Vanin-1 Enzyme Assay 2
Format: biochemical
Conditions: 1 nM human vanin-1, 10 uM substrate, 45 min
So I've got a bunch of compounds here, and I need their IC50 values.

The compound identified as NC(=O)c1ccc(CNc2ncc(C(=O)c3ccccc3)cn2)cc1 [Example 106] registered its IC50 at 990 nM

The compound identified as N#Cc1cccc(C(=O)c2cnc(NCc3ccc(C(N)=O)nc3)nc2)c1 [Example 105] registered its IC50 at 195 nM

The compound identified as O=C(c1ccccc1)c1cnc(NC2(c3cccnc3)CC2)nc1 [Example 114] registered its IC50 at 254 nM

The compound identified as O=C(c1ccccc1)c1cnc(NCc2cccnn2)nc1 [Example 115] registered its IC50 at 1510 nM

The compound identified as N#Cc1cc(C(=O)c2cnc(NCc3cncnc3)nc2)ccc1Cl [Example 134] registered its IC50 at 100 nM

The compound identified as Cc1cccc(C(=O)c2cnc(NCc3ccccn3)nc2)c1 [Example 38] registered its IC50 at 868 nM

The compound identified as Cc1ccc2cc(C(=O)c3cnc(NCc4cccnc4)nc3)ccc2n1 [Example 104] registered its IC50 at 116 nM

The compound identified as Cc1ccc(C(=O)c2cnc(NCc3cncnc3)nc2)cc1C#N [Example 132] registered its IC50 at 98.2 nM

The compound identified as O=C(c1cnc(NC2(c3ccccc3)CC2)nc1)c1cccc(C(F)(F)F)c1 [Example 66] registered its IC50 at 44.8 nM
